Biological target: the molecule itself
Assay: cryo-EM structure
assay.readout: stoichiometry N
Give the figure by itself; no unit, no explanation.

Measured stoichiometry N, SpaQ (natural protein, also called SpaQ1-4) MDDLVFAGNKALYLVLILSGWPTIVATIIGLLVGLFQTVTQLQEQTLPFGIKLLGVCLCLFLLSGWYGEVLLSYGRQVIFLALAKG : 4
